So I've got a bunch of molecules here, and I need their isoTOP-ABPP reactivity ratio at lysine P23381_K256 values.
TGT: WARS Tryptophan--tRNA ligase, cytoplasmic (Homo sapiens)
Construct: isoTOP-ABPP experiments performed in cell lysates (in vitro); endogenous in cells; host or cells: soluble proteome of human cancer cell lines (MDA-MB-231; Ramos and Jurkat also prepared)
Sequence (P23381 1-471): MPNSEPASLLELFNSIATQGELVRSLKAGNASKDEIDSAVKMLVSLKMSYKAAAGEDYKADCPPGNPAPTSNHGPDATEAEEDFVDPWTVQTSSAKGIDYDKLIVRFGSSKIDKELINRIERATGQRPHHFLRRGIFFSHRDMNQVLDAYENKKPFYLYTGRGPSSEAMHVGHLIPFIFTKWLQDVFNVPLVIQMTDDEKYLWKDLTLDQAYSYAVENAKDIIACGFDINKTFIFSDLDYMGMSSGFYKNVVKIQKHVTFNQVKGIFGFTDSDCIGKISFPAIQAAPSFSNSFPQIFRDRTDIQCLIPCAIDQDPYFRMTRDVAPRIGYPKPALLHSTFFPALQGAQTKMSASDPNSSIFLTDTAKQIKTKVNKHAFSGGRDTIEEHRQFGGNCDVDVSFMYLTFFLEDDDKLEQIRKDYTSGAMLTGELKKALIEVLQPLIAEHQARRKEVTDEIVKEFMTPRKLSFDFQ
ASSAY_NAME: competitive isoTOP-ABPP
Assay type: binding
SETTINGS: 50 uM, 231 sol, in vitro
Give bare numbers.

Below are worked cases with known answers.
O=C(CCc1cn(-c2ccccc2)nc1-c1ccccc1)Oc1ccc([N+](=O)[O-])cc1[N+](=O)[O-] [fragment 29]: 0.9
O=C(CCc1coc2cc(F)ccc2c1=O)Oc1c(F)c(F)c(F)c(F)c1F [fragment 26]: 2.3
O=C(Oc1ccc([N+](=O)[O-])cc1[N+](=O)[O-])c1cc(C(F)(F)F)cc(C(F)(F)F)c1 [fragment 31]: 0.9
O=C(Oc1c(F)c(F)c(F)c(F)c1F)c1ccc2ccccc2n1 [fragment 25]: 4.4
O=C(Oc1ccc([N+](=O)[O-])cc1[N+](=O)[O-])C(c1ccccc1)c1ccccc1 [fragment 30, 2,4-Dinitrophenyl 2,2-diphenylacetate]: 1.1
CCn1cc(C(=O)Oc2c(F)c(F)c(F)c(F)c2F)c(=O)c2ccc(C)nc21 [fragment 28]: 1.0
O=C(CN1C(=O)c2ccccc2C1=O)Oc1c(F)c(F)c(F)c(F)c1F [fragment 27]: 2.7
COc1cc(CCC(=O)Oc2ccc([N+](=O)[O-])cc2[N+](=O)[O-])cc(OC)c1OC [fragment 33]: 0.8

**Query** Provide isoTOP-ABPP reactivity ratio at lysine P23381_K256 value for the following molecule: Cn1cc(CC(=O)Oc2ccc([N+](=O)[O-])cc2[N+](=O)[O-])c2ccccc21 [fragment 32]
**Result** 0.9

----------
TGT: GLUD1 Glutamate dehydrogenase 1, mitochondrial (Homo sapiens)
Construct: isoTOP-ABPP experiments performed in cell lysates (in vitro); endogenous in cells; host or cells: MDA-MB-231 soluble lysate
Sequence (P00367 54-558): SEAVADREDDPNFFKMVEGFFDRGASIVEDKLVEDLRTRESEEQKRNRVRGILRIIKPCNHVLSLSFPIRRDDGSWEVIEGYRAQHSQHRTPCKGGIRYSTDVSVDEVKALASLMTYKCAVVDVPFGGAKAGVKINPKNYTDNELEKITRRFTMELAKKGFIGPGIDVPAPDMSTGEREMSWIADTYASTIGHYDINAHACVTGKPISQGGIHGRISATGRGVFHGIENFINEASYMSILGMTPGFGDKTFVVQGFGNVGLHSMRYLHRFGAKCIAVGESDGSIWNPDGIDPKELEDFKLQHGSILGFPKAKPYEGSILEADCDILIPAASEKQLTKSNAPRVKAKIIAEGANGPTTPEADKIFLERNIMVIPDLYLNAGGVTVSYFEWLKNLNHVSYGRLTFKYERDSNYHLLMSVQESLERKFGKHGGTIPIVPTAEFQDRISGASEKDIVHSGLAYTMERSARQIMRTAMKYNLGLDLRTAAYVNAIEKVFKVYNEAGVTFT
ASSAY_NAME: competitive isoTOP-ABPP
Assay type: binding
SETTINGS: 50 uM, 231 sol, in vitro
So I've got a bunch of molecules here, and I need their isoTOP-ABPP reactivity ratio at lysine P00367_K480 values.
One number for each entry.

Kindly give each listed record's isoTOP-ABPP reactivity ratio at lysine P00367_K480.
1. CCn1cc(C(=O)Oc2c(F)c(F)c(F)c(F)c2F)c(=O)c2ccc(C)nc21 [fragment 28]
2. O=C(Oc1c(F)c(F)c(F)c(F)c1F)c1ccc2ccccc2n1 [fragment 25]
3. Cn1cc(CC(=O)Oc2ccc([N+](=O)[O-])cc2[N+](=O)[O-])c2ccccc21 [fragment 32]
4. O=C(Oc1ccc([N+](=O)[O-])cc1[N+](=O)[O-])c1cc(C(F)(F)F)cc(C(F)(F)F)c1 [fragment 31]
5. COc1cc(CCC(=O)Oc2ccc([N+](=O)[O-])cc2[N+](=O)[O-])cc(OC)c1OC [fragment 33]
6. O=C(CCc1coc2cc(F)ccc2c1=O)Oc1c(F)c(F)c(F)c(F)c1F [fragment 26]
7. O=C(CN1C(=O)c2ccccc2C1=O)Oc1c(F)c(F)c(F)c(F)c1F [fragment 27]

**Result**
1.0
1.2
4.4
1.3
6.2
1.6
2.0

----------
TGT: MAP1LC3B Microtubule-associated proteins 1A/1B light chain (Homo sapiens, UniProt Q9GZQ8)
Construct: isoTOP-ABPP experiments performed in cell lysates (in vitro); endogenous in cells; host or cells: soluble proteome of human cancer cell lines (MDA-MB-231; Ramos and Jurkat also prepared)
ASSAY_NAME: competitive isoTOP-ABPP
Type: binding
SETTINGS: 50 uM_231_sol_in vitro
MEASURED_METRIC: isoTOP-ABPP ratio, lysine Q9GZQ8_K51

Below are worked cases with known answers.
O=C(Oc1c(F)c(F)c(C(F)(F)F)c(F)c1F)c1cc(C(F)(F)F)cc(C(F)(F)F)c1: 0.9
O=C(Oc1c(F)c(F)cc(F)c1F)c1cc(C(F)(F)F)cc(C(F)(F)F)c1: 0.8
O=C(CCc1ccc2c(c1)OCO2)Oc1ccc([N+](=O)[O-])cc1[N+](=O)[O-]: 1.0

Could you now consider this next compound?
**Query** Provide isoTOP-ABPP ratio, lysine Q9GZQ8_K51 value for the following compound: N#Cc1ccc(C(=O)Oc2ccc([N+](=O)[O-])cc2[N+](=O)[O-])cc1 [fragment 44, 2,4-Dinitrophenyl 4-cyanobenzoate]
**Result** 0.9

----------
TGT: GBAS Protein NipSnap homolog 2 (Homo sapiens, UniProt O75323)
Construct: isoTOP-ABPP experiments performed in cell lysates (in vitro); endogenous in cells; host or cells: MDA-MB-231 soluble lysate
Sequence (O75323 24-286): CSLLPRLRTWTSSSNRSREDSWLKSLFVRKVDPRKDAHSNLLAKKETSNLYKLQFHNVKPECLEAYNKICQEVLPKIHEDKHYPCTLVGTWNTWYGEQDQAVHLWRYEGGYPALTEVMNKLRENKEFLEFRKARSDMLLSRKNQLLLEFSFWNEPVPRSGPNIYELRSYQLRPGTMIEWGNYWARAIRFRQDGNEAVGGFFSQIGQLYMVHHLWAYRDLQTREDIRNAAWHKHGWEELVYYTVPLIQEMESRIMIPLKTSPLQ
ASSAY_NAME: competitive isoTOP-ABPP
Type: binding
SETTINGS: 50 uM, in vitro, sol, 231
MEASURED_METRIC: isoTOP-ABPP ratio (R) at liganded lysine O75323_K75

Below are worked cases with known answers.
O=C(CCc1coc2cc(F)ccc2c1=O)Oc1ccc([N+](=O)[O-])cc1[N+](=O)[O-]: 20.0
O=C(Oc1ccc([N+](=O)[O-])cc1[N+](=O)[O-])c1ccccc1Nc1cccc(C(F)(F)F)c1: 1.0
CC(=O)Oc1ccc([N+](=O)[O-])cc1[N+](=O)[O-] [fragment 43, 2,4-Dinitrophenyl acetate]: 1.6
O=C(CC12CC3CC(CC(C3)C1)C2)Oc1ccc([N+](=O)[O-])cc1[N+](=O)[O-]: 1.3
O=C(Oc1ccc([N+](=O)[O-])cc1[N+](=O)[O-])c1ccc2ccccc2n1: 1.6
CC(C)(C)OC(=O)NCCCC(=O)Oc1ccc([N+](=O)[O-])cc1[N+](=O)[O-]: 1.8
O=C(Oc1ccc([N+](=O)[O-])cc1[N+](=O)[O-])c1ccc(Oc2ccccc2)cc1 [fragment 39, 2,4-Dinitrophenyl 4-phenoxybenzoate]: 20.0
O=C(Oc1ccc([N+](=O)[O-])cc1[N+](=O)[O-])c1ccc(-c2ccccc2)cc1: 1.6

Could you now consider this next molecule?
**Query** Provide isoTOP-ABPP ratio (R) at liganded lysine O75323_K75 value for the following molecule: O=C(Oc1ccc([N+](=O)[O-])cc1[N+](=O)[O-])C(c1ccccc1)(c1ccccc1)c1ccccc1 [fragment 42, 2,4-Dinitrophenyl 2,2,2-triphenylacetate]
**Result** 0.9

----------
TGT: GLUD1 Glutamate dehydrogenase 1, mitochondrial (Homo sapiens)
Construct: isoTOP-ABPP experiments performed in cell lysates (in vitro); endogenous in cells; host or cells: MDA-MB-231 soluble lysate
ASSAY_NAME: competitive isoTOP-ABPP
Type: binding
SETTINGS: 50 uM_231_sol_in vitro; possible other lysine P00367_K477
MEASURED_METRIC: isoTOP-ABPP ratio, lysine P00367_K480

Below are worked cases with known answers.
O=C(Oc1c(F)c(F)cc(F)c1F)c1cc(C(F)(F)F)cc(C(F)(F)F)c1: 1.5
O=C(CCc1ccc2c(c1)OCO2)Oc1ccc([N+](=O)[O-])cc1[N+](=O)[O-]: 2.8
NC(=O)c1cc(C(F)(F)F)cc(C(F)(F)F)c1 [fragment 51, reference compound]: 1.5
O=C(ON1C(=O)CCC1=O)c1cc(C(F)(F)F)cc(C(F)(F)F)c1: 1.5
N#Cc1ccc(C(=O)Oc2ccc([N+](=O)[O-])cc2[N+](=O)[O-])cc1 [fragment 44, 2,4-Dinitrophenyl 4-cyanobenzoate]: 1.2

Could you now consider this next compound?
**Query** Provide isoTOP-ABPP ratio, lysine P00367_K480 value for the following compound: O=C(Oc1c(F)c(F)c(C(F)(F)F)c(F)c1F)c1cc(C(F)(F)F)cc(C(F)(F)F)c1
**Result** 2.0

----------
So I've got a bunch of molecules here, and I need their isoTOP-ABPP ratio (R) at liganded lysine Q92600_K230 values.
TGT: RQCD1 Cell differentiation protein RCD1 homolog (Homo sapiens)
Construct: isoTOP-ABPP experiments performed in cell lysates (in vitro); endogenous in cells; host or cells: soluble proteome of human cancer cell lines (MDA-MB-231; Ramos and Jurkat also prepared)
Sequence (Q92600 whole entry): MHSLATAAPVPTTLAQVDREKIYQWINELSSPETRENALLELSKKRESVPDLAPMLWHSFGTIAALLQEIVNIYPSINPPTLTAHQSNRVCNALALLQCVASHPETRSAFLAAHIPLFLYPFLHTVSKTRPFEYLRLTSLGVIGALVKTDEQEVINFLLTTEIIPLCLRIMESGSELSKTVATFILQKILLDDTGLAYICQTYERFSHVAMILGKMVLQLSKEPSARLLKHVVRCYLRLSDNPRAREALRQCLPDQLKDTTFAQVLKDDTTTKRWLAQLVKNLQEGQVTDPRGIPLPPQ
ASSAY_NAME: competitive isoTOP-ABPP
Format: binding
SETTINGS: 50 uM, in vitro, sol, 231
Answers are plain numbers.

Below are worked cases with known answers.
O=C(Oc1ccc([N+](=O)[O-])cc1[N+](=O)[O-])c1ccccc1Nc1cccc(C(F)(F)F)c1: 0.9
O=C(CC12CC3CC(CC(C3)C1)C2)Oc1ccc([N+](=O)[O-])cc1[N+](=O)[O-]: 0.9

**Query** Provide isoTOP-ABPP ratio (R) at liganded lysine Q92600_K230 value for the following molecule: O=C(Oc1ccc([N+](=O)[O-])cc1[N+](=O)[O-])C1CCN(C(=O)OCc2ccccc2)CC1
**Result** 0.8
